Ref: patent US20100260765A1

- target.system: KDR (human, UniProt P35968 20-1356)
- Sequence (P35968 20-1356): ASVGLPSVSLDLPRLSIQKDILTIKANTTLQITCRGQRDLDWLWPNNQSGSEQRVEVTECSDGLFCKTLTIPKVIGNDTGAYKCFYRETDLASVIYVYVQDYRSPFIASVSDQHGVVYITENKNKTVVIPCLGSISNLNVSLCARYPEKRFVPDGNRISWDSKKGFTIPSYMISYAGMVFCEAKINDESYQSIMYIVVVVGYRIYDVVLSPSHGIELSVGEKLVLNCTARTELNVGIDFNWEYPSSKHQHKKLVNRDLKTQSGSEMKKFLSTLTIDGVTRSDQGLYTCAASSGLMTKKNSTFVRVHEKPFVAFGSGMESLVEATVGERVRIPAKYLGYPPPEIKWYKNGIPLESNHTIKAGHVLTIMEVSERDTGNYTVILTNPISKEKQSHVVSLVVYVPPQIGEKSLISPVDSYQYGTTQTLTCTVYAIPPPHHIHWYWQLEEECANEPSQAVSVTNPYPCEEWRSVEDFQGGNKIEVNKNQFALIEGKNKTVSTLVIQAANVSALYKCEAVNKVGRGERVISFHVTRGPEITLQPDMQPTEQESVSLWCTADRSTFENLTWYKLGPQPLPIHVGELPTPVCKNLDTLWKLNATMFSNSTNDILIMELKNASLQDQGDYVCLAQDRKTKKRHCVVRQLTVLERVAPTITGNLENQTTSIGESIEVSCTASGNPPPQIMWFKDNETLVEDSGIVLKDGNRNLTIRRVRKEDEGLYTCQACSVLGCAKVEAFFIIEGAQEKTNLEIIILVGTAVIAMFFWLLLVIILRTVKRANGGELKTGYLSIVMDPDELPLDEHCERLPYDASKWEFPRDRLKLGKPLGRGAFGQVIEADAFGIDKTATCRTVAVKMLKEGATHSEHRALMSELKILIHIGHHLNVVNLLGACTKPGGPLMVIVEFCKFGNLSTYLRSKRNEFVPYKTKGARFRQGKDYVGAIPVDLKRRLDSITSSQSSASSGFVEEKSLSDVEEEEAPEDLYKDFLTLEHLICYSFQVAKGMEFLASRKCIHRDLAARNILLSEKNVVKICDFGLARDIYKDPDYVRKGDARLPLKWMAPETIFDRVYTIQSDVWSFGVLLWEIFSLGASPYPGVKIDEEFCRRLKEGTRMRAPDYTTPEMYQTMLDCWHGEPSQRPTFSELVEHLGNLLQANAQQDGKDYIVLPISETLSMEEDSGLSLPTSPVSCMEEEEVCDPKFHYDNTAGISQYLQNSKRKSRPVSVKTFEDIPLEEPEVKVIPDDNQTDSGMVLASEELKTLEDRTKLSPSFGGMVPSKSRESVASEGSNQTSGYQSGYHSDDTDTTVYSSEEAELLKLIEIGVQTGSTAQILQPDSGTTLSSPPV
- assay.text: cell-based or functional assay
Consider the following binders and their measured % of Max VEGF KDR pTyr Activity (at 133 nM antibody concentration), Average readings.
Please respond with the number in % and leave the unit unwritten.

Would you please look over these solved cases?
INSERT INTO assay_data (binder, unit_descriptor, readout_number) VALUES
  ('33E1 (antibody, V domains shown) VH: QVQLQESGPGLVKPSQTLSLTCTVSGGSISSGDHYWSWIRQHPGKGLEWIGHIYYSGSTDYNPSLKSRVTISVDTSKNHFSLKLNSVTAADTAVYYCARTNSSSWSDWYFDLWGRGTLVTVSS VL: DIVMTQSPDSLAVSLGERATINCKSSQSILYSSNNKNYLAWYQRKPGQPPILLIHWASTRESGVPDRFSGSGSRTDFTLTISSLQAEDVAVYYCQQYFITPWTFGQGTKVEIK', '%', 8),
  ('22B8 (antibody, V domains shown) VH: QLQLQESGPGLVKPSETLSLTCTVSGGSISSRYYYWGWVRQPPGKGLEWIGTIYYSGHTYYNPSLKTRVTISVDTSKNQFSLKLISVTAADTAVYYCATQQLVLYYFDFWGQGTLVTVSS VL: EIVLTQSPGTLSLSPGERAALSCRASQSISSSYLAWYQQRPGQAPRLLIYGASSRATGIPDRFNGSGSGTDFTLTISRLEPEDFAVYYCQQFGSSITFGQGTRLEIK', '%', 7),
  ('24B3 (antibody, V domains shown) VH: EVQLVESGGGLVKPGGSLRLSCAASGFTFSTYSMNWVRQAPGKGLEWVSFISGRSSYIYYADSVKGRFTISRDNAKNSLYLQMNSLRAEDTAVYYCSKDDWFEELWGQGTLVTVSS VL: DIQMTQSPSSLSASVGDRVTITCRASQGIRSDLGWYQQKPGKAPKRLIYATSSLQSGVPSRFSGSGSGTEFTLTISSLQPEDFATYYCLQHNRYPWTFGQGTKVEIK', '%', 14),
  ('21H9 (antibody, V domains shown) VH: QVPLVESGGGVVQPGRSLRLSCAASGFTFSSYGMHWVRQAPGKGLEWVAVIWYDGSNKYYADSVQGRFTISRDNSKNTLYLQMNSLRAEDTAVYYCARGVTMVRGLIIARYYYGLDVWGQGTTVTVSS VL: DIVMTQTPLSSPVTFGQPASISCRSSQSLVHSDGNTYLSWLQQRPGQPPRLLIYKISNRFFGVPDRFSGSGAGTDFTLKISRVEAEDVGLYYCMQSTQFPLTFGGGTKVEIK', '%', 15);

Next binder, % of Max VEGF KDR pTyr Activity (at 133 nM antibody concentration), Average to be filled in.
Memo: 33D5 (antibody, V domains shown) VH: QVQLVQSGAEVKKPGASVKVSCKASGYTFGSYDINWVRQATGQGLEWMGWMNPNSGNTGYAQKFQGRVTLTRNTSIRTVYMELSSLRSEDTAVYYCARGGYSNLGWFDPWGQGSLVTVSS VL: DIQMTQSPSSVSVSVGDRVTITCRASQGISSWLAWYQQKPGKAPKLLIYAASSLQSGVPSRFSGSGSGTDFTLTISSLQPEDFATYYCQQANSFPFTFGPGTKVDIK , reported % of Max VEGF KDR pTyr Activity (at 133 nM antibody concentration), Average: 17
